The following molecules are shown together with reported IC50 values.
Target: SARM1 SAM-TIR (Homo sapiens, UniProt Q6SZW1)
Construct: a fragment of the SARM1 molecule encompassing the SAM and TIR domains; made in house; host or cells: NRK1-HEK293T cells, transiently transfected; the cleared, unpurified lysate was used as the enzyme
Sequence (Q6SZW1 409-724 limits assumed): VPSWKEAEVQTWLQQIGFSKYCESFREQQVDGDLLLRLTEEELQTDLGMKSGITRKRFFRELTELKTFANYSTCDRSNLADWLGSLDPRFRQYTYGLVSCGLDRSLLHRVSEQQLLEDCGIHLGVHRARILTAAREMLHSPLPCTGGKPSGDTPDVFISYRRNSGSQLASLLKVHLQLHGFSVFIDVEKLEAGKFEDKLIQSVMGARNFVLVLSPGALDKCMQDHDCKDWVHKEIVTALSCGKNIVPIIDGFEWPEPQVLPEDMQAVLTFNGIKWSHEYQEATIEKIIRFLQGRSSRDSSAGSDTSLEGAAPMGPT
Test: biochemical
Settings: SAM-TIR lysate 5 μg/mL, 2 h pre-incubation, 5 μM NAD+, RapidFire MS of NAD+ and ADPR; read-out: SARM1 IC50

line_notation=Cn1sc(Nc2ccc(Cl)c3c2CCCO3)c(C#N)c1=O obs_value="< 1000 nM"
line_notation=COCCCn1sc(Nc2ccccc2C(F)(F)F)c(C#N)c1=O obs_value="< 1000 nM"
line_notation=N#Cc1c(O)nsc1Nc1ccccc1F obs_value="1000 to 5000 nM"
line_notation=N#Cc1c(Nc2cccc3ncccc23)sn(CCC(N)=O)c1=O obs_value="< 1000 nM"
line_notation=COCCn1sc(Nc2c(Cl)cccc2Cl)c(C(N)=O)c1=O obs_value="> 5000 nM"
line_notation=O=c1cc(Nc2ccccc2C(F)(F)F)s[nH]1 obs_value="1000 to 5000 nM"
line_notation=COc1cccc(C(F)(F)F)c1Nc1sn(C)c(=O)c1C(=O)N1CCOCC1 obs_value="> 5000 nM"
line_notation=N#Cc1c(Nc2c(Cl)cccc2Cl)sn(CCC(N)=O)c1=O obs_value="< 1000 nM"
line_notation=N#Cc1c(O)nsc1Nc1cccc2ccccc12 obs_value="< 1000 nM"
line_notation=COCCn1sc(Nc2c(OC)cccc2C(F)(F)F)c(C(=N)N(C)C)c1=O obs_value="1000 to 5000 nM"

input: Requested read-out IC50, target or system SARM1 SAM-TIR (Homo sapiens, UniProt Q6SZW1), entry `C[C@@H](c1ccccc1)n1sc(Nc2ccccc2C(F)(F)F)c(C(=O)N2CCOCC2)c1=O`;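 also: inhibition of SARM1 SAM-TIR NADase activity, i.e. NAD+ cleavage, using lysate of NRK1-HEK293T cells overexpressing the SAM-TIR fragment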
output: 1000 to 5000 nM

input: Also need `COC[C@H](C)n1sc(Nc2ccccc2C(F)(F)F)c(C#N)c1=O` , thanks.
output: < 1000 nM

input: Also need `CS(=O)(=O)c1ccccc1Nc1snc(O)c1C#N` , thanks.
output: < 1000 nM

input: Also need `COCCn1sc(N(C)c2ccccc2C(F)(F)F)c(-c2ncon2)c1=O` , thanks.
output: > 5000 nM

input: Also need `C[C@@H](c1ccccc1)n1sc(Nc2c(Cl)cccc2Cl)c(C(=N)N2CCOCC2)c1=O` , thanks.
output: > 5000 nM

input: Also need `C#CCOCCOCCOCCn1sc(Nc2ccccc2C(F)(F)F)c(C#N)c1=O` , thanks.
output: < 1000 nM

input: Also need `N#Cc1c(Nc2ccc(N3CC[C@@H](O)C3)nc2)s[nH]c1=O` , thanks.
output: 1000 to 5000 nM

input: Also need `N#Cc1c(Nc2ccccc2C(F)(F)F)sn(CCO)c1=O` , thanks.
output: < 1000 nM

input: Also need `NC(=O)c1c(O)nsc1Nc1ccccc1OC(F)(F)F` , thanks.
output: 1000 to 5000 nM

input: Also need `N#Cc1c(Nc2ccc3nc(C(F)(F)F)[nH]c(=O)c3c2)s[nH]c1=O` , thanks.
output: > 5000 nM
